These data points were gathered from patent US10266558B2.

assay.protocol: physchem
conditions: simulated gi fluid
property: half-life (h)
Report as a plain number; the unit h is understood.

Documented half-life of CC(C)OC(=O)[C@H](C)N[P@](=O)(OC[C@H]1O[C@@H](n2ccc(=O)[nH]c2=O)[C@](C)(F)[C@@H]1O)Oc1ccccc1 : 15

###

assay.protocol: Metabolic stability in human liver S9 fraction
Type: in vitro ADME
conditions: pH 7.4
property: half-life at 1 μM

C[C@@H]1N[P@@](=O)(Oc2ccccc2)OC[C@H]2O[C@@H](n3ccc(=O)[nH]c3=O)[C@](C)(F)[C@@H]2OC(=O)CCCOC1=O [1(13)]    > 12.4 h

// below: half-life at 1 μM requested for another compound
Documented half-life at 1 μM of CC(C)OC(=O)[C@H](C)N[P@](=O)(OC[C@H]1O[C@@H](n2ccc(=O)[nH]c2=O)[C@](C)(F)[C@@H]1O)Oc1ccccc1 [Sovaldi®, sofosbuvir] : > 1.8 h
